Assay target: T1, monkey GPC3-His protein (monkey)
T1 construct: Bought recombinant protein; also called monkey GPC3 protein
Test details: ELISA, monkey GPC3-His coated;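 also: Plate-coated antigen at 1 µg/mL, antibody binding 2 h at 37 °C, detected with HRP-labeled secondary antibody and TMB, absorbance at 450 nm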
Observable: OD450 at 1 nM
Note: state the figure and append the unit.

{"Binder": "F1.21.8 (antibody, human IgG1, kappa, V domains shown, Human-murine chimeric antibody) VH: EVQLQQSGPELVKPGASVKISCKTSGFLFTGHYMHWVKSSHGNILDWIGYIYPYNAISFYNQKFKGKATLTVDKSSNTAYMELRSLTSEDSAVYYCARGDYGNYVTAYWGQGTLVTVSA VL: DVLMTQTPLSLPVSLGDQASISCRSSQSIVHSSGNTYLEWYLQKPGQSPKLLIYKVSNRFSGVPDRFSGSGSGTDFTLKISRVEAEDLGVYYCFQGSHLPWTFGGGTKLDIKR", "OD450 at 1 nM": "1 OD450"}
{"Binder": "F1.3.9 (antibody, human IgG1, kappa, V domains shown, Human-murine chimeric antibody) VH: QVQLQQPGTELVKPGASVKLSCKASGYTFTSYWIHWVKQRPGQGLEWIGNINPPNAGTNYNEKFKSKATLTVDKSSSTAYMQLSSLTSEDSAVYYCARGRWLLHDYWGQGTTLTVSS VL: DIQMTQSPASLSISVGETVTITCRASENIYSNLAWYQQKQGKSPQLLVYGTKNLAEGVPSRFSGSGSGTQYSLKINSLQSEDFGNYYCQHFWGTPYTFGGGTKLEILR", "OD450 at 1 nM": "1.52 OD450"}
{"Binder": "F2.169.2 (antibody, human IgG1, kappa, V domains shown, Human-murine chimeric antibody) VH: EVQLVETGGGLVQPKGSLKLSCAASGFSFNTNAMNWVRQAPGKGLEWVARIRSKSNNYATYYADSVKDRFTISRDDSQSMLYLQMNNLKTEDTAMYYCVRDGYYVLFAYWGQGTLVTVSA VL: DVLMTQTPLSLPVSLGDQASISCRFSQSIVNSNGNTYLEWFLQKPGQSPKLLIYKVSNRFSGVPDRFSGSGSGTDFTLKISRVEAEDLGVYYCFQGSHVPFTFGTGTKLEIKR", "OD450 at 1 nM": "2.27 OD450"}
{"Binder": "F1.118.4 (antibody, human IgG1, kappa, V domains shown, Human-murine chimeric antibody) VH: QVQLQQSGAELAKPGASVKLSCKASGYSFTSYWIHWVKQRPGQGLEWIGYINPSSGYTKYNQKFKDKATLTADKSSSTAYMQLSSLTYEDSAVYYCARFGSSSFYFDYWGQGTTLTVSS VL: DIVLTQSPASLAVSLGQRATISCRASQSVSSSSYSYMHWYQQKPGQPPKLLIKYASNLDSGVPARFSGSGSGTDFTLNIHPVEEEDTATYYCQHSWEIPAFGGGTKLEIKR", "OD450 at 1 nM": "2.21 OD450"}

For the next question, use this binder.
Entry F1.42.8 (antibody, human IgG1, kappa, V domains shown, Human-murine chimeric antibody) VH: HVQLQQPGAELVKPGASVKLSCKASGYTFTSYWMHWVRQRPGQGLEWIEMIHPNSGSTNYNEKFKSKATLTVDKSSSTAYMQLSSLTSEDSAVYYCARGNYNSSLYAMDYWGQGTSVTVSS VL: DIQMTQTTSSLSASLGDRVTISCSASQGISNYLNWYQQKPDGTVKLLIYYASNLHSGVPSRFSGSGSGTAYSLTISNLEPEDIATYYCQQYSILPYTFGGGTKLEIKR : reported OD450 at 1 nM = ?
2.31 OD450
